Where these numbers come from: the Human Domainome abundance scans (Beltran et al. 2025)

Assignment: determine reported abundance fitness for the given variants.
B1: Tudor domain-containing protein 3, residues 554 to 611; numbered along this chain, Q9H7E2 (parent)
chain: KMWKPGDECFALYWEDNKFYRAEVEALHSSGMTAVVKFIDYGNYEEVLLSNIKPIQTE

# Variants of: B1
# ASSAY_TEXT: abundance fitness (aPCA) (normalised: wild type 0, dead -1); higher = more abundant; growth selection in yeast, the domain comes from the species named
# MEASUREMENT_PARAMETERS: Homo sapiens
Give bare numbers.

Answered examples (4):
V35C: -0.162
Y44H: -0.13
W14A: 0.173
D7A: -0.396

Would you mind giving abundance fitness for every variant in the list below?
1. E58L
2. P5Y
3. W3Q

Outgoing:
-0.183
-0.447
-0.721

Would you mind giving abundance fitness for every variant in the list below?
1. N51Q
2. V35E
3. V24D
4. D7V

Outgoing:
[-0.036, -0.227, -1.03, -0.789]

Would you mind giving abundance fitness for every variant in the list below?
1. E23R
2. N43F

Outgoing:
1: 0.032; 2: -0.052

Would you mind giving abundance fitness for every variant in the list below?
1. E8I
2. W3Y
3. F38C
4. P5G
5. E58M
6. E23A

Outgoing:
1. 0.056
2. -0.312
3. -0.935
4. -0.61
5. -0.175
6. -0.257

Would you mind giving abundance fitness for every variant in the list below?
1. L12A
2. L49F
3. R21L

Outgoing:
1. -0.525
2. -0.602
3. -0.177
